Please respond with reported phosphorylation enrichment for every item in the list.
testSystem: EPHB2 (UniProt P29323)
Sequence (P29323 whole entry, looked up): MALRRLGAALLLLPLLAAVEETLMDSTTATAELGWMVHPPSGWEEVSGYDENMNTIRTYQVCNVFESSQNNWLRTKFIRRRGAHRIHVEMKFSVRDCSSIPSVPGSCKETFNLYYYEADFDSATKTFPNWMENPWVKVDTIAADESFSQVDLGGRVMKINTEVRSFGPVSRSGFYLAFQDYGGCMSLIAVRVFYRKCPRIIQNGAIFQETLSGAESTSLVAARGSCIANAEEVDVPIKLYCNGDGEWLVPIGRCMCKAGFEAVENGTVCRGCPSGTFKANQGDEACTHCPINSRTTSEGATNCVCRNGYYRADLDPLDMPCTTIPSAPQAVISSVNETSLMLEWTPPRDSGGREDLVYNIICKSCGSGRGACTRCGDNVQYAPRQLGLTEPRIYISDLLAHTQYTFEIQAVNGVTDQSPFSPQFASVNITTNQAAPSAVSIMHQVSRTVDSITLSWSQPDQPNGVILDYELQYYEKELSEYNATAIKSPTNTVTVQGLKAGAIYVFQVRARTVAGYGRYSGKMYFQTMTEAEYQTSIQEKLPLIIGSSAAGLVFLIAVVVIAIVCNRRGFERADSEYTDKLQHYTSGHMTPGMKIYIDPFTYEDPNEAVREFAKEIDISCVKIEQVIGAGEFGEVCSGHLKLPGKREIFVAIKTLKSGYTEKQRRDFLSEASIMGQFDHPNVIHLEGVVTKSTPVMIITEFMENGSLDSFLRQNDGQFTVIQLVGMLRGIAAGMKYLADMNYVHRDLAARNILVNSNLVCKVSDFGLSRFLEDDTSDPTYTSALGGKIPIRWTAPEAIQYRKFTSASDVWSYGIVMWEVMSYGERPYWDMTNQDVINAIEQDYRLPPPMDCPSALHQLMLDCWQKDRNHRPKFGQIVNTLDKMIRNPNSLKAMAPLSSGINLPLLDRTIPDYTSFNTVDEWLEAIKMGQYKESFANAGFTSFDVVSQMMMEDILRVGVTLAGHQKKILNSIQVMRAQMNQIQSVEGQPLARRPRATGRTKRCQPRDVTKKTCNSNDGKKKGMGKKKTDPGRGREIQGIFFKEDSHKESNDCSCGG
procedureDetails: phosphorylation enrichment, bacterial display (enrichment ratio); higher = better substrate or ligand; peptides without Tyr show the background;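 also: 11-residue human phosphosite peptides and single-mutation variants displayed on the E. coli surface, counted by deep sequencing, each peptide's frequency after selection divided by its frequency in the unselected input library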;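 also: frequency after pTyr selection over input frequency; kinase dosed for 20-30% of maximal phosphorylation in three min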
Answers are plain numbers.

Completed entries (count: 5):
| sequenceText | testSystem | valueObserved |
| --- | --- | --- |
| RMQLPYDSTWE [PDGFRB_Y589_P584R] | EPHB2 (UniProt P29323) | 0.704 |
| QKKPCYEIRWK [PDGFRB_Y562_R561C] | EPHB2 (UniProt P29323) | 1.48 |
| YSKDIYKRVTG [PANK2_Y405_N404I] | EPHB2 (UniProt P29323) | 0.419 |
| LTVVIYVLVGR [EPHA3_Y561_I564V] | EPHB2 (UniProt P29323) | 0.251 |
| NKYTTYLPRLP [C9orf24_Y126] | EPHB2 (UniProt P29323) | 0.386 |

Please supply phosphorylation enrichment for each of the following items, keeping them in order.
1. VQDPAYLRDID [OPRK1_Y369]
2. YQNGMYGLHQD [SGSH_Y89_H84Y]
3. RSRSPYSSRHS [CDK13_Y415]
4. QRRNVYYYSYL [PTEN_Y176_Y174N]
5. YQGGTYSKAST [FGG_Y380]
6. LFVDVYGPSVP [NUBPL_Y109_D105Y_YF]
7. LHAAAYQNALA [UQCRC2_Y182_R183Q]
8. HLVLNYGVCVC [JAK2_Y613]

1: 0.657; 2: 0.687; 3: 0.614; 4: 3.05; 5: 0.419; 6: 0.545; 7: 0.423; 8: 1.27

Okay, here is my list. What is phosphorylation enrichment for each of these?
1. PMFTKYGNGLL [RPGRIP1L_Y196_S199G]
2. GGRIDYIAGLD [APRT_Y60]
3. PTATSYNPNLA [GABRA1_Y375_T376N]
4. KFGTNYRVGSS [CPO_Y278_YF]
5. MPIPMYDGSQA [CARMIL1_Y637_A639G]

1: 0.525; 2: 0.417; 3: 0.607; 4: 0.382; 5: 0.634

// input: 8 sequences below; output: phosphorylation enrichment for each
1. KDHRDYKYQPR [SOX9_Y172_P170R]
2. YIIFIYAMKKK [SLCO1B1_Y645_L643F]
3. KLPDAYEPLIL [G6PD_Y437_R439P]
4. AELVQYFMEHH [PTPN11_Y80_YF]
5. TFGVVYKARNK [CDK2_Y19_YF]
6. ERLWDYGMSSS [F8_Y1728]
7. PMQLPYDSRWE [PDGFRA_Y582]
8. SSDPDYRAAVD [GLB1_Y154_L155R]

1. 0.424
2. 0.239
3. 0.494
4. 0.545
5. 0.518
6. 0.578
7. 0.623
8. 0.589

For each of the sequences below, state phosphorylation enrichment.
1. KQRKEYMHRRQ [IQGAP2_Y710]
2. NNPAYYVLEGV [INPPL1_Y987]
3. VYAADYYKLLG [ROR2_Y645]
4. LYSGDYYRIQG [DDR2_Y740]
5. PLDGEYFTLRI [TP53_Y327_Q331R]

[0.444, 0.69, 1.78, 30.3, 1.04]

For each listed entry, give its phosphorylation enrichment.
1. DGMADCSDPSY [CDC5L_Y459_Y459C]
2. KKYFSYAWPFY [BRDT_Y291_H288Y]
3. TARWEYMHSPS [CPOX_Y429]
4. LGRGKYSEVFE [CSNK2A1_Y50]
5. EKKDVYKAGEQ [CFH_Y1008]

1. 0.595
2. 0.452
3. 0.624
4. 0.798
5. 0.643

Batch lookup, phosphorylation enrichment per entry.
1. HSGVSYYINLC [IGF2R_Y2024_N2020S]
2. NKFTTYLPWLP [C9orf24_Y126_R129W_YF]
3. DQLVKYGVNPG [TMPO_Y127]

[0.942, 6.61, 0.325]

Supply phosphorylation enrichment value. Item: LGRGKSSEVFE [CSNK2A1_Y50_Y50S]
0.605
